B1: full-length mouse BTLA-EGFP, on cells [mouse] / full-length WT mouse HVEM-mCherry, on cells [mouse] (parent complex)
chain 1: EKATKRNDEECPVQLTITRNSKQSARTGELFKIQCPVKYCVHRPNVTWCKHNGTICVPLEVSPQLYTSWEENQSVPVFVLHFKPIHLSDNGSYSCSTNFNSQVINSHSVTIHVRERTQNSSEHPLITVSDIPDATNASGPSTMEERPGRTWLLYTLLPLGALLLLLACVCLLCFLKRIQGKEKKPSDLAGRDTNLVDIPASSRTNHQALPSGTGIYDNDPWSSMQDESELTISLQSERNNQGIVYASLNHCVIGRNPRQENNMQEAPTEYASICVRS
chain 2: QPSCRQEEFLVGDECCPMCNPGYHVKQVCSEHTGTVCAPCPPQTYTAHANGLSKCLPCGVCDPDMGLLTWQECSSWKDTVCRCIPGYFCENQDGSHCSTCLQHTTCPPGQRVEKRGTHDQDTVCADCLTGTFSLGGTQEECLPWTNCSAFQQEVRRGTNSTDTTCSSQVVYYVVSILLPLVIVGAGIAGFLICTRRHLHTSSVAKELEPFQEQQENTIRFPVTEVGFAETEEETASN

- Variants of: B1
- METHOD_NOTES: flow cytometry, cell–cell method
ratio to parent less than 1 is Criterion met; ratio to parent greater than or equal to 1 is Criterion not met.

# TODO verify ratio to parent < 1 strictly for this variant: chain 2 R5D
Criterion not met

# TODO verify ratio to parent < 1 strictly for this variant: chain 2 G34R
Criterion met

# TODO verify ratio to parent < 1 strictly for this variant: chain 2 K26A
Criterion met

# TODO verify ratio to parent < 1 strictly for this variant: chain 2 S30D
Criterion met

# TODO verify ratio to parent < 1 strictly for this variant: chain 2 N50D
Criterion met

# TODO verify ratio to parent < 1 strictly for this variant: chain 2 V36D
Criterion met

# TODO verify ratio to parent < 1 strictly for this variant: chain 2 T35D
Criterion met

# TODO verify ratio to parent < 1 strictly for this variant: chain 2 L52R
Criterion met

# TODO verify ratio to parent < 1 strictly for this variant: chain 2 R5A
Criterion met

# TODO verify ratio to parent < 1 strictly for this variant: chain 2 G34D
Criterion met

# TODO verify ratio to parent < 1 strictly for this variant: chain 2 H48D
Criterion not met

# TODO verify ratio to parent < 1 strictly for this variant: chain 2 S30H
Criterion met

# TODO verify ratio to parent < 1 strictly for this variant: chain 2 H48R
Criterion not met

# TODO verify ratio to parent < 1 strictly for this variant: chain 2 K77A
Criterion not met

# TODO verify ratio to parent < 1 strictly for this variant: chain 2 K77D
Criterion not met

# TODO verify ratio to parent < 1 strictly for this variant: chain 2 H96D
Criterion met

# TODO verify ratio to parent < 1 strictly for this variant: chain 2 T35A
Criterion met

# TODO verify ratio to parent < 1 strictly for this variant: chain 2 T99D
Criterion met

# TODO verify ratio to parent < 1 strictly for this variant: chain 2 E8R
Criterion met

# TODO verify ratio to parent < 1 strictly for this variant: chain 2 N50A
Criterion not met

# TODO verify ratio to parent < 1 strictly for this variant: chain 2 L52D
Criterion met

# TODO verify ratio to parent < 1 strictly for this variant: chain 2 A38D
Criterion not met

# TODO verify ratio to parent < 1 strictly for this variant: chain 2 L56D
Criterion not met

# TODO verify ratio to parent < 1 strictly for this variant: chain 2 M18A
Criterion not met

# TODO verify ratio to parent < 1 strictly for this variant: chain 2 A49D
Criterion not met

# TODO verify ratio to parent < 1 strictly for this variant: chain 2 A38W
Criterion not met

# TODO verify ratio to parent < 1 strictly for this variant: chain 2 P17A
Criterion met

Cited source: paper PMC8558838
